Assign IC50 to each entry below.
assay.target: ATP-binding cassette sub-family C member 2 (Homo sapiens)
Sequence (Q92887 whole entry): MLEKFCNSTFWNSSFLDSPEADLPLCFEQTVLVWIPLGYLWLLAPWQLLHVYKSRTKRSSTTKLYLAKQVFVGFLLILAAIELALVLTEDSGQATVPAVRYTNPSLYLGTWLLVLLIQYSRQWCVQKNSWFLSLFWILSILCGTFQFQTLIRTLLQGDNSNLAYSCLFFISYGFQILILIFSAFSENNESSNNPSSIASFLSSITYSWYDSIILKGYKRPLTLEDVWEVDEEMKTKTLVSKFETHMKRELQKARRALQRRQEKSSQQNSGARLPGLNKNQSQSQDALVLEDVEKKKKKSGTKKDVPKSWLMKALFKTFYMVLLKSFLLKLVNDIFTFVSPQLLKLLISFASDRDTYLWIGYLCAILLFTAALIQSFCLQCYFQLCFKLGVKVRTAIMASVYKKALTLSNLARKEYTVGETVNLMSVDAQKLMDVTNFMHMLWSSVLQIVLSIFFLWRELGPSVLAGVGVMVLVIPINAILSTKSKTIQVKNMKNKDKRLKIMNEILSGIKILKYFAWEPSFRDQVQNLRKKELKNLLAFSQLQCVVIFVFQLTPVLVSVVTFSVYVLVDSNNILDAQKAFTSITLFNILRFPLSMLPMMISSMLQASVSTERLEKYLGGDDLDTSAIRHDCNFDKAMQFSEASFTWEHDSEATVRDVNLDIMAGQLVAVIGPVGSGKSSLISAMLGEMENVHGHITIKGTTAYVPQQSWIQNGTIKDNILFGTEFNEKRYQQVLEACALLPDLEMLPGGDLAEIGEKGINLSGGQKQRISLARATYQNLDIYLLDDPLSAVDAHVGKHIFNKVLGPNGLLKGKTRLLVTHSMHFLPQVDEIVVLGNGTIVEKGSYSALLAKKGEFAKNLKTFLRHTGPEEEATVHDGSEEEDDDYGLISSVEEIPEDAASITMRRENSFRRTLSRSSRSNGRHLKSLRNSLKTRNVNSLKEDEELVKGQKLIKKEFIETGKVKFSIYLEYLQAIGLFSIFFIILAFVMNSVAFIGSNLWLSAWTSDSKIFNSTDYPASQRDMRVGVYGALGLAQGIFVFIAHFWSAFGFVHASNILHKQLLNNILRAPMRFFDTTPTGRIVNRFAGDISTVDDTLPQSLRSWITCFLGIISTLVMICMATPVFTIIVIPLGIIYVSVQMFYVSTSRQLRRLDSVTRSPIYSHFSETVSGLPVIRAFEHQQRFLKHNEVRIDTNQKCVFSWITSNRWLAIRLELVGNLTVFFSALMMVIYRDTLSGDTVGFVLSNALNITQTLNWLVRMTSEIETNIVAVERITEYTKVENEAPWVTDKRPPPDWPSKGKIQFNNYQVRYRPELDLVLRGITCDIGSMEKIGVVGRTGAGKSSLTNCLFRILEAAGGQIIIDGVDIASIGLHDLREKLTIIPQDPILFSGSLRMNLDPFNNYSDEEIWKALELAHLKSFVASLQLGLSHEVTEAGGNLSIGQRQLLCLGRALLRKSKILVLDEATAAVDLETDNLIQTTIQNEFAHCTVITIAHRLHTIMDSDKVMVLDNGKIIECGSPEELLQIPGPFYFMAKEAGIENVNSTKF
measurement.notes: Inhibition of human MRP2 overexpressed in Sf9 cell membrane vesicles assessed as uptake of [3H]-estradiol-17beta-D-glucuronide in presence of ATP and GSH measured after 20 mins by membrane vesicle transport assay
Where a name gives a salt, the structure may show the parent alone.

Would you please look over these solved cases?
{"compound": "C=CCN1C[C@H](C(=O)N(CCCN(C)C)C(=O)NCC)C[C@@H]2c3cccc4[nH]cc(c34)C[C@H]21 [CABERGOLINE]", "IC50": "> 133 µM"}
{"compound": "CCN[C@H]1CN(CCCOC)S(=O)(=O)c2sc(S(N)(=O)=O)cc21 [BRINZOLAMIDE]", "IC50": "> 133 µM"}
{"compound": "Nc1ncn([C@H]2C[C@H](O)[C@@H](CO)O2)c(=O)n1 [DECITABINE]", "IC50": "> 133 µM"}
{"compound": "Nc1nc(Cl)nc2c1ncn2[C@H]1C[C@H](O)[C@@H](CO)O1 [CLADRIBINE]", "IC50": "> 133 µM"}
{"compound": "CN1CCN(CCCN2c3ccccc3Sc3ccc(Cl)cc32)CC1 [PROCHLORPERAZINE]", "IC50": "> 133 µM"}

For every listed record, write down its IC50.
1. Oc1ccc2c(c1)[C@@]13CCCC[C@@]1(O)[C@@H](C2)N(CC1CCC1)CC3 [BUTORPHANOL]
2. CN(C)CCOc1ccc(/C(=C(/CCCl)c2ccccc2)c2ccccc2)cc1 [TOREMIFENE CITRATE]
3. CCCCN1CCCCC1C(=O)Nc1c(C)cccc1C (stereo not drawn) [BUPIVACAINE HYDROCHLORIDE]

Completion:
1. > 133 µM
2. > 133 µM
3. > 133 µM

---

assay.target: UniProt O15439
Sequence (O15439 whole entry): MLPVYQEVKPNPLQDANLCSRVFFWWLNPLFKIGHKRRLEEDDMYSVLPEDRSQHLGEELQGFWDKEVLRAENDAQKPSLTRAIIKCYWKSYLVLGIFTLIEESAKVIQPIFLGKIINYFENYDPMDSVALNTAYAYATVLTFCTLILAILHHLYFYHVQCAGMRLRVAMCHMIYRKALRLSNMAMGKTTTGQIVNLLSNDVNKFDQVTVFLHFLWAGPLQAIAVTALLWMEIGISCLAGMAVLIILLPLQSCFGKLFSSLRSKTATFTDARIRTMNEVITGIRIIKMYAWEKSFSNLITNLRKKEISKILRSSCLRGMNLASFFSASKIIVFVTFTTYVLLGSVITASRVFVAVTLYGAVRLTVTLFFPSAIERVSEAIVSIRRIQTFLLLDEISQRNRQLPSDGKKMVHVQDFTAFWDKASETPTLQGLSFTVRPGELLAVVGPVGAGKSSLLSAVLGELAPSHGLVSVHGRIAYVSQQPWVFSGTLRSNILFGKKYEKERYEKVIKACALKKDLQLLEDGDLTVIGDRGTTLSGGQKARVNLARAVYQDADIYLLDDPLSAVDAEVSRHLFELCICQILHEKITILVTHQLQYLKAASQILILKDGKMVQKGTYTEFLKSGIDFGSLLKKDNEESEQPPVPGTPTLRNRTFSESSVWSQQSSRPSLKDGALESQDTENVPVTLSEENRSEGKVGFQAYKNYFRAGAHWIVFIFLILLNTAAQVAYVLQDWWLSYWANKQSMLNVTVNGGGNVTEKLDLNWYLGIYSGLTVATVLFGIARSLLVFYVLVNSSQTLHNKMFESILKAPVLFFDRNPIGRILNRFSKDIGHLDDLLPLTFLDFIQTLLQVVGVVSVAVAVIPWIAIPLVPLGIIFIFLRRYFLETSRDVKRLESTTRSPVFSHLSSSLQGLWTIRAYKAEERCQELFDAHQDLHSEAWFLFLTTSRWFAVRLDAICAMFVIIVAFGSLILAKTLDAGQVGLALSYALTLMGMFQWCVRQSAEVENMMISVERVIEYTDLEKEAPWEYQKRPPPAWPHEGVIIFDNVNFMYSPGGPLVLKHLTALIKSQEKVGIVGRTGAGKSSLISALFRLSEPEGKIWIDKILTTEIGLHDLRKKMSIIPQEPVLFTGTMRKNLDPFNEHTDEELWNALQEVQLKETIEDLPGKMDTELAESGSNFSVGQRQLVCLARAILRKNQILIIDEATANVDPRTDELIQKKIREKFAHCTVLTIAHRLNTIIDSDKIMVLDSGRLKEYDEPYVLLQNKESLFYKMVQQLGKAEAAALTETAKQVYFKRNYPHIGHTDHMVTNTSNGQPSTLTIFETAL
measurement.notes: Inhibition of human MRP4 overexpressed in Sf9 cell membrane vesicles assessed as uptake of [3H]-estradiol-17beta-D-glucuronide in presence of ATP and GSH measured after 20 mins by membrane vesicle transport assay
pIC50: −log10 of the molar value.
outcome.measure: pIC50

Here's what some known entries look like.
{"compound": "NCCCC[C@H](N[C@@H](CCc1ccccc1)C(=O)O)C(=O)N1CCC[C@H]1C(=O)O [LISINOPRIL ANHYDROUS]", "pIC50": "< 3.88"}
{"compound": "C=C[C@H]1C[N@@]2CC[C@H]1C[C@H]2[C@H](O)c1ccnc2ccc(OC)cc12 [QUININE]", "pIC50": "< 3.88"}
{"compound": "CCCc1nc(C(C)(C)O)c(C(=O)OCc2oc(=O)oc2C)n1Cc1ccc(-c2ccccc2-c2nnn[nH]2)cc1 [OLMESARTAN MEDOXOMIL]", "pIC50": 4.55}
{"compound": "C[C@H]1O[C@H](O[C@H]2[C@H](O)[C@@H](O)[C@@H](O[C@H]3[C@H](O)[C@@H](O)C(O)O[C@@H]3CO)O[C@@H]2CO)[C@H](O)[C@@H](O)[C@@H]1N[C@H]1C=C(CO)[C@@H](O)[C@H](O)[C@H]1O (stereo not given in full) [ACARBOSE]", "pIC50": "< 3.88"}
{"compound": "CC(C)OC(=O)CCC/C=C\\C[C@@H]1[C@@H](/C=C/[C@@H](O)COc2cccc(C(F)(F)F)c2)[C@H](O)C[C@@H]1O [TRAVOPROST]", "pIC50": 4.13}
{"compound": "ClC(Cl)(Cl)Cl [CARBON TETRACHLORIDE]", "pIC50": "< 3.88"}

Quick batch: pIC50 for everything below.
1. CCCC[C@](C)(O)C/C=C/[C@H]1[C@H](O)CC(=O)[C@@H]1CCCCCCC(=O)OC
2. CN(C)[C@@H]1C(O)=C(C(N)=O)C(=O)[C@@]2(O)C(O)=C3C(=O)c4c(O)cccc4[C@@](C)(O)[C@H]3C[C@@H]12 [TETRACYCLINE]

Completion:
1. 4.34
2. < 3.88
